Quick reference for MTS Assay in MCF-7 Cells, Percent of Control Activity among some substances
- System: MCF-7 cells
- experiment notes: Cell viability, MTS Assay in MCF-7 Cells
- details: test peptides 10 μM, 72 hours, relative to DMSO control
Numbers only here, please. The scale is %.

Reference set (3 entries):
substance | system under test | value measured
12 (MVSVLESALGRTRV) [compound 12] | MCF-7 cells | 32
2 (PIVLELIPLKIFEIGPVFTL) [compound 2] | MCF-7 cells | 71
7 (MSVWKVAVQTFNCYYYVLQALIN) [compound 7] | MCF-7 cells | 64

Then this substance:
Lookup: API: value(readout= MTS Assay in MCF-7 Cells, Percent of Control Activity, system= MCF-7 cells, query= 17 (MRCERYTSIPRSEMVNASIIFM) [compound 17] )
Found: 54
